method summary: Stability of peptides in serum (Fetal Bovine Serum), activity remaining
Format: in vitro ADME
experimental context: octapeptides X-SDKPYIL; fraction of peptide activity left after 10 min of incubation in serum at 37° C.
Ends that are not written are not given here.
Items are presented alongside their recorded Stability in serum (activity remaining).
Output spec: scalar in fraction, unitless text.

(Q) Tell me Stability in serum (activity remaining) reported for ESDKPYIL [compound 36039]
(A) 0.0964

(Q) Tell me Stability in serum (activity remaining) reported for DSDKPYIL [compound 36038]
(A) 0.0947

(Q) Tell me Stability in serum (activity remaining) reported for HSDKPYIL [compound 36042]
(A) 0.0980

(Q) Tell me Stability in serum (activity remaining) reported for NSDKPYIL [compound 36047]
(A) 0.0872

(Q) Tell me Stability in serum (activity remaining) reported for ISDKPYIL [compound 36043]
(A) 0.0956

Please examine the following record next.
(Q) Tell me Stability in serum (activity remaining) reported for CSDKPYIL [compound 36037]
(A) 0.0963
